B1: r11_951_TrROS_Hall (parent)
chain: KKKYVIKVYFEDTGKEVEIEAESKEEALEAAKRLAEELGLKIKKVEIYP

Variants of: B1
ASSAY_METHOD_TEXT: folding stability dG (cDNA display proteolysis); higher = more stable
CONDITION_LABEL: PBS, room temperature
Let's look at some variants and their measured folding stability dG.
Record the value in kcal/mol, omitting the unit from your answer.

variant_designation=S23G measured_value=4.06
variant_designation=I47P measured_value=4.04
variant_designation=I42F measured_value=4.01
variant_designation=L40Q measured_value=4.07
variant_designation=K3E measured_value=3.9
variant_designation=S23I measured_value=4
variant_designation=S23V measured_value=3.91

Could you now consider this next variant?
Exercise: Give the value of folding stability dG reported for the following: S23C
Solution: 4.05

Each recorded value in this set is attributed to the MegaScale stability set (Tsuboyama et al. 2023).
